Each entry below lists one item and its recorded % IL-6 production, supernatant 1:10 dilut. value.
molecular target: Recombinant human IL-1beta (rhIL-1b) (human, UniProt P01584 117-269); assay: cell-based or functional assay
Entry rule: numbers only, all in %.

{"columns": ["Binder", "Meas Value"],
 "data": [
  ["9.11.1 (antibody, human IgG4, V domains shown, lambda; also called 9.11.3) VH: QVQLVESGGGVVQPGRSLRLSCAASGFTFSVYGMHWVRQAPGKGLEWVAVIWYDGNNKYYVDSVKGRFTISRDNSKNTLYLQLNSLRAEDTAVYYCARERSSSWYFDYWGQGTLVTVSS VL: QSALTQPASVSGSSGQSITISCTGTSSDVGSYNLVSWYQQHPGKAPKLMIYEVSKRPSGVSNRFSGSKSGNTASLTISGLQAEDEADYYCCSYAGNSNWVFGGGTKLTVL", 3],
  ["9.19.1 (antibody, human IgG4, V domains shown, lambda; also called mAb 9.19.1) VH: QVQLVESGGGVVQPGRSLRLSCAASGFTFNNYGMHWVRQAPGKGLECVAVIWYDGGNKYYADSVKGRFAISRDNSKNTLYLQMNSLRAEDTAVYYCTAVTKLNYYYGMDVWGQRTTVTVS VL: QSALTQPASVSGSPGQSITISCTGTSSDVGGYNYVSWYQQHPGKAPKFMIYEVSNRPSGVSNRFSGSKSGNTASLTISGLQAEDEADYYCSSYTSSSILVFGGGTKLTVL", 10]
]}

// moving on: another record for % IL-6 production, supernatant 1:10 dilut.
Q) Param item = 8.6.1 (antibody, human IgG4, V domains shown, lambda; also called 8.6.3) VH: QVQLQESGPGLVKPSETLSLTCTVSGGSVSSGGYYWSWVRQPPGKGLEWIGCIYFSESTNYNPSLKSRVTISVDTSKNQFSLKLSSVTAADTAVYYCARDPMHYYGMDVWGQGTTVTVSS VL: SFELTQPPSVSVSPGQTASITCSGDKLGDKFACWYQQKPGQSPVLVIYQDTKRPSGIPERISGSNSGNTATLTISGTQAMDEADYYCQAWDSSTYVVFGGGTKLTVL ; retrieve measured % IL-6 production, supernatant 1:10 dilut..
A) 8
